These data points were gathered from ChEMBL document CHEMBL1147629.

Measured IC50, listed per entry for reference.
- TEST SYSTEM: Dual specificity mitogen-activated protein kinase kinase 1 (Homo sapiens)
- ASSAY NAME: Inhibitory potency against mitogen activated protein kinase kinase 1
READOUT TYPE: IC50 (nM)

- MOLECULE: "N#C/C(=C(/N)Sc1ccccc1N)c1cccc(C(O)c2ccc([N+](=O)[O-])cc2)c1 (stereo not given)"
  UNIT ABBREV: "nM"
  OBSERVED MEASUREMENT: 8
- MOLECULE: "N#C/C(=C(/N)Sc1ccccc1N)c1cccc(C(O)c2c(F)c(F)c(F)c(F)c2F)c1 (stereo not given)"
  UNIT ABBREV: "nM"
  OBSERVED MEASUREMENT: 44
- MOLECULE: "C[n+]1ccc(C(O)c2cccc(/C(C#N)=C(\\N)Sc3ccccc3N)c2)cc1 (stereo not given)"
  UNIT ABBREV: "nM"
  OBSERVED MEASUREMENT: 330
- MOLECULE: "N#C/C(=C(/N)Sc1ccccc1N)c1cccc(C(O)c2cccc(C(F)(F)F)c2)c1 (stereo not given)"
  UNIT ABBREV: "nM"
  OBSERVED MEASUREMENT: 53
- MOLECULE: "N#C/C(=C(/N)Sc1ccccc1N)c1cccc(C(O)c2ccc3c(c2)OCCO3)c1 (stereo not given)"
  UNIT ABBREV: "nM"
  OBSERVED MEASUREMENT: 25

----------
- TEST SYSTEM: Dual specificity mitogen-activated protein kinase kinase 1 (Homo sapiens, UniProt Q02750)
- Sequence (Q02750 whole entry): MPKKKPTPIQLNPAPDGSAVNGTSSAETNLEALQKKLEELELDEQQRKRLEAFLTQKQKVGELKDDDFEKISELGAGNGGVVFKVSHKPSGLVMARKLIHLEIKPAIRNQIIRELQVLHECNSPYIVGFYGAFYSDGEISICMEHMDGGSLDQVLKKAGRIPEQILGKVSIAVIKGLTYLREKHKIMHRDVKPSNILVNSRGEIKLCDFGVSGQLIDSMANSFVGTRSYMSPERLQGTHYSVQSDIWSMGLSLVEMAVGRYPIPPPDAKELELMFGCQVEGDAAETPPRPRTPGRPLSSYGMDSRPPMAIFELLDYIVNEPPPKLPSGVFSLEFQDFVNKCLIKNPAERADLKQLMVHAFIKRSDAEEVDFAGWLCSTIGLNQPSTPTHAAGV
- ASSAY NAME: Inhibitory potency against mitogen activated protein kinase kinase 1
pIC50: −log10 of the molar value.

- COMPOUND: "N#C/C(=C(/N)Sc1ccccc1N)c1cccc(C(O)c2ccc(C#N)cc2)c1 (stereo not given)"
  pIC50: 8.15
- COMPOUND: "N#C/C(=C(/N)Sc1ccccc1N)c1cccc(C(O)c2cccc3ccccc23)c1 (stereo not given)"
  pIC50: 7.33
- COMPOUND: "N#C/C(=C(/N)Sc1ccccc1N)c1cccc(C(O)c2ccsc2)c1 (stereo not given)"
  pIC50: 7.77
- COMPOUND: "COC(=O)c1ccc(C(O)c2cccc(/C(C#N)=C(\\N)Sc3ccccc3N)c2)cc1 (stereo not given)"
  pIC50: 7.85
- COMPOUND: "N#C/C(=C(/N)Sc1ccc(N)cc1)c1cccc(C(O)c2ccc(C#N)cc2)c1 (stereo not given)"
  pIC50: 7.28
- COMPOUND: "CC(C)(O)c1cccc(/C(C#N)=C(\\N)Sc2ccccc2N)c1"
  pIC50: 6.47
- COMPOUND: "N#CC(=C(N)Sc1ccccc1N)c1ccccc1"
  pIC50: 6.85
- COMPOUND: "N#C/C(=C(/N)Sc1ccccc1N)c1cccc(C(O)C2CCCCC2)c1 (stereo not given)"
  pIC50: 7.25
- COMPOUND: "N#C/C(=C(/N)Sc1ccccc1N)c1cccc(C(O)c2cccc(C#N)c2)c1 (stereo not given)"
  pIC50: 7.89
- COMPOUND: "N#C/C(=C(/N)Sc1ccccc1N)c1cccc(C(O)c2ccc(-c3nnn(C(c4ccccc4)(c4ccccc4)c4ccccc4)n3)cc2)c1 (stereo not given)"
  pIC50: 6.59

----------
- TEST SYSTEM: Dual specificity mitogen-activated protein kinase kinase 1 (Homo sapiens)
- ASSAY NAME: Inhibitory potency against mitogen activated protein kinase kinase 1
pIC50: −log10 of the molar value.
Criterion: pIC50 meeting or surpassing 7. Met: MET. Not met: NOT MET.

- MOLECULE: "N#C/C(=C(/N)Sc1ccccc1N)c1cccc(C(O)c2ccc(C(F)(F)F)cc2)c1 (stereo not given)"
  ASSIGNED CATEGORY: "MET"
- MOLECULE: "N#C/C(=C(/N)Sc1ccccc1N)c1cccc(C(O)(c2ccccc2)c2ccccc2)c1"
  ASSIGNED CATEGORY: "NOT MET"
- MOLECULE: "CC(O)c1cccc(/C(C#N)=C(\\N)Sc2ccccc2N)c1 (stereo not given)"
  ASSIGNED CATEGORY: "NOT MET"
- MOLECULE: "N#C/C(=C(/N)Sc1ccccc1N)c1cccc(C(O)c2cccs2)c1 (stereo not given)"
  ASSIGNED CATEGORY: "MET"
